system: MCF7; assay: Cytotoxicity against human MCF7 cells after 48 hrs by MTT assay; format: functional, cell-based; settings: MCF7, 48 h
VALUE_TYPE: pIC50
Formally, pIC50 is defined as -log10 of the concentration c, with c in mol/L.

Completed entries (count: 5):
>  <STRUCTURE_AS_SMILES>
CCc1n(Cc2c(-c3ccccc3)oc3ccccc23)cc[n+]1CC(=O)c1ccc(F)cc1

>  <TARGET_ENTITY>
MCF7

>  <pIC50>
5.30

$$$$
>  <STRUCTURE_AS_SMILES>
CCc1n(Cc2c(-c3ccccc3)oc3ccccc23)cc[n+]1CC(=O)c1ccc(O)cc1

>  <TARGET_ENTITY>
MCF7

>  <pIC50>
4.76

$$$$
>  <STRUCTURE_AS_SMILES>
c1ccc(C[n+]2cn(Cc3c(-c4ccccc4)oc4ccccc34)c3ccccc32)cc1

>  <TARGET_ENTITY>
MCF7

>  <pIC50>
5.46

$$$$
>  <STRUCTURE_AS_SMILES>
COc1ccc(C(=O)C[n+]2cnn(Cc3c(-c4ccccc4)oc4ccccc34)c2)cc1

>  <TARGET_ENTITY>
MCF7

>  <pIC50>
4.83

$$$$
>  <STRUCTURE_AS_SMILES>
O=C(C[n+]1ccn(Cc2c(-c3ccccc3)oc3ccccc23)c1)c1ccccc1

>  <TARGET_ENTITY>
MCF7

>  <pIC50>
4.81

$$$$

Q. Which pIC50 is reported for this compound? O=C(C[n+]1ccn(Cc2c(-c3ccccc3)oc3ccccc23)c1)c1ccc(F)cc1
A. 4.84

Q. Requested read-out: pIC50. Entry: O=C(C[n+]1ccn(Cc2c(-c3ccccc3)oc3ccccc23)c1)c1ccc2ccccc2c1
A. 5.43

Q. // lookup pIC50 for O=C(C[n+]1cn(Cc2c(-c3ccccc3)oc3ccccc23)c2ccccc21)c1ccc2ccccc2c1
A. 5.49

Q. For the compound O=C(C[n+]1cnn(Cc2c(-c3ccccc3)oc3ccccc23)c1)c1ccc(Br)cc1 , what pIC50 is on record?
A. 4.98

###

system: SMMC-7721; assay: Cytotoxicity against human SMMC7721 cells after 48 hrs by MTT assay; assay type: functional, cell-based; conditions: SMMC-7721, 48 h
VALUE_TYPE: IC50 (µM)
Only the number, expressed in µM, is required.

Q. Recorded IC50 for CCc1n(Cc2c(-c3ccccc3)oc3ccccc23)cc[n+]1CC(=O)c1ccc(O)cc1 , please?
A. 13.1

Q. Which IC50 is listed for O=C(c1ccccc1)C(c1ccccc1)[n+]1cnn(Cc2c(-c3ccccc3)oc3ccccc23)c1 (stereo not given) ?
A. 16.1

###

target: Serine/threonine-protein kinase mTOR (Homo sapiens); assay: Inhibition of mTOR (unknown origin) assessed as ratio of cytoplasmic to nuclear level of eukaryotic initiation factor 4E
VALUE_TYPE: Ratio
No unit in the answer, please; the number alone is enough.

Worked set:
>  <STRUCTURE_AS_SMILES>
COc1ccc(C(=O)C[n+]2ccn(Cc3c(-c4ccccc4)oc4ccccc34)c2)cc1

>  <VALUE_TYPE>
Ratio

>  <RECORDED_MEASUREMENT>
1.12

$$$$
>  <STRUCTURE_AS_SMILES>
CO[C@H]1C[C@@H]2CC[C@@H](C)[C@@](O)(O2)C(=O)C(=O)N2CCCC[C@H]2C(=O)O[C@H]([C@H](C)C[C@@H]2CC[C@@H](O)[C@H](OC)C2)CC(=O)[C@H](C)/C=C(\C)[C@@H](O)[C@@H](OC)C(=O)[C@H](C)C[C@H](C)/C=C/C=C/C=C/1C

>  <VALUE_TYPE>
Ratio

>  <RECORDED_MEASUREMENT>
1.59

$$$$

Here's the next entry for you.
Q. Entry Brc1ccccc1C[n+]1cn(Cc2c(-c3ccccc3)oc3ccccc23)c2ccccc21 , system Serine/threonine-protein kinase mTOR (Homo sapiens): what Ratio was measured?
A. 1.52

All figures here come from ChEMBL document CHEMBL2406955.
